- targetSystem: hMC4-R (Homo sapiens (Human), UniProt P32245)
- Sequence (P32245 whole entry): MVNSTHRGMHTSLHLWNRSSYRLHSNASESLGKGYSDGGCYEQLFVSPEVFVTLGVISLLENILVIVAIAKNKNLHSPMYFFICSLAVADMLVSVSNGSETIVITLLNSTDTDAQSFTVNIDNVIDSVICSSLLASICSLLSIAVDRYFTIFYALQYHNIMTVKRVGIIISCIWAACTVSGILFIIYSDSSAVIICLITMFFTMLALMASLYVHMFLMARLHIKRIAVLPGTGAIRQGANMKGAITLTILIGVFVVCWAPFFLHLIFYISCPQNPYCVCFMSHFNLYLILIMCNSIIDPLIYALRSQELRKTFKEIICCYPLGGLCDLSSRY
- methodNotes: High and low density hMC4-R functional assay (cAMP, HEK293-T-REx-MC4-R cells)
- Type: cell-based
- assayConditions: 10 ng/mL Doxycycline (high density hMC4-R system)
resultType: EC50 (nM)

a. CC(=O)N[C@H](CCCNC(=N)N)C(=O)N[C@H]1CC(=O)NCCCC[C@@H](C(N)=O)NC(=O)[C@H](Cc2c[nH]c3ccccc23)NC(=O)[C@H](CCCNC(=N)N)NC(=O)[C@@H](Cc2cccc(Cl)c2)NC(=O)[C@H](CCC(N)=O)NC1=O [Example 80]
b. CC(=O)N[C@H](CCCNC(=N)N)C(=O)N[C@H]1CCCNC(=O)CC[C@@H](C(N)=O)NC(=O)[C@H](Cc2c[nH]c3ccccc23)NC(=O)[C@H](CCCNC(=N)N)NC(=O)[C@@H](Cc2ccc(F)cc2)NC(=O)[C@H](Cc2c[nH]cn2)NC1=O [Example 57]
**Query** Thinking about recorded EC50 values, which is higher, a or b ? Respond using the label that marks the chosen record.
**Result** a
(a: 0.65 nM, b: 0.095 nM)

P. CC(=O)N[C@@H](CCCNC(=N)N)C(=O)N[C@H]1CCC(=O)NCCC[C@@H](C(N)=O)NC(=O)[C@H](Cc2c[nH]c3ccccc23)NC(=O)[C@H](CCCNC(=N)N)NC(=O)[C@@H](Cc2ccc(-c3ccccc3)cc2)NC(=O)[C@H](CCN)NC1=O [Example 29]
Q. CC(=O)N[C@@H](CCCNC(=N)N)C(=O)N[C@H]1CCC(=O)NCCC[C@@H](C(N)=O)NC(=O)[C@H](Cc2c[nH]c3ccccc23)NC(=O)[C@H](CCCNC(=N)N)NC(=O)[C@@H](Cc2cccc(Cl)c2)NC(=O)[C@@H]2C[C@@H](O)CN2C1=O [Example 37]
**Query** Sorting ascending by EC50, which comes first: P or Q ? Respond using the label that marks the chosen record.
**Result** Q
(Q: 0.55 nM, P: 0.8 nM)

* * *

- targetSystem: hMC4-R (Homo sapiens (Human), UniProt P32245)
- methodNotes: High and low density hMC4-R functional assay (cAMP, HEK293-T-REx-MC4-R cells)
- Assay type: cell-based
- assayConditions: 10 ng/mL Doxycycline (high density hMC4-R system); NDP-α-MSH = 100%; read-out: Intrinsic Activity (%)
Positions of bridges follow the written chain, without caps; N, C: chain ends. Non-standard residues stand in square brackets, D forms with d. Residues, ends and D or L forms follow the SMILES beside them. dPhe(4-CN) = N#Cc1ccc(C[C@@H](N)C(=O)O)cc1; Orn = NCCC[C@H](N)C(=O)O
resultType: Emax (%)

CC(=O)N[C@@H](CCCNC(=N)N)C(=O)N[C@H]1CCC(=O)NCCC[C@@H](C(=O)O)NC(=O)[C@H](Cc2c[nH]c3ccccc23)NC(=O)[C@H](CCCNC(=N)N)NC(=O)[C@@H](Cc2ccc(C#N)cc2)NC(=O)[C@H](CCC(=O)O)NC1=O [Example 109] (Ac-REE[dPhe(4-CN)]RW[Orn]-OH; lactam 2-7)    69
CC(=O)N[C@@H](CCCNC(=N)N)C(=O)N[C@H]1CCC(=O)NCCC[C@@H](C(=O)O)NC(=O)[C@H](Cc2c[nH]c3ccccc23)NC(=O)[C@H](CCCNC(=N)N)NC(=O)[C@@H](Cc2ccc(C#N)cc2)NC(=O)[C@H](CCC(N)=O)NC1=O [Example 86]    96
CC(=O)N[C@@H](CCCNC(=N)N)C(=O)N[C@H]1CCC(=O)NCCC[C@@H](C(N)=O)NC(=O)[C@H](Cc2c[nH]c3ccccc23)NC(=O)[C@H](CCCNC(=N)N)NC(=O)[C@@H](Cc2ccccc2C)NC(=O)[C@H](CC(N)=O)NC1=O [Example 73]    102
CC(=O)N[C@H](CCCNC(=N)N)C(=O)N[C@H]1CCCNC(=O)CC[C@@H](C(N)=O)NC(=O)[C@H](Cc2c[nH]c3ccccc23)NC(=O)[C@H](CCCNC(=N)N)NC(=O)[C@@H](Cc2ccc(C#N)cc2)NC(=O)[C@H](Cc2c[nH]cn2)NC1=O [Example 52]    99
CC(=O)N[C@@H](CCCNC(=N)N)C(=O)N[C@H]1CC(=O)NCCCC[C@@H](C(N)=O)NC(=O)[C@H](Cc2c[nH]c3ccccc23)NC(=O)[C@H](CCCNC(=N)N)NC(=O)[C@@H](Cc2ccc(F)cc2)NC(=O)[C@@H]2CCCN2C1=O [Example 103]    100
CC(=O)N[C@H](CCCNC(=N)N)C(=O)N[C@H]1CC(=O)NCCCC[C@@H](C(N)=O)NC(=O)[C@H](Cc2c[nH]c3ccccc23)NC(=O)[C@H](CCCNC(=N)N)NC(=O)[C@@H](Cc2ccccc2F)NC(=O)[C@H](CCC(N)=O)NC1=O [Example 82]    95
CC(=O)N[C@@H](CCCNC(=N)N)C(=O)N[C@H]1CCC(=O)NCCC[C@@H](C(N)=O)NC(=O)[C@H](Cc2c[nH]c3ccccc23)NC(=O)[C@H](CCCNC(=N)N)NC(=O)[C@@H](Cc2ccc(F)cc2)NC(=O)[C@@H]2CCCN2C1=O [Example 67]    99
CC(=O)N[C@@H](CCCNC(=N)N)C(=O)N[C@H]1CCCNC(=O)CC[C@@H](C(N)=O)NC(=O)[C@H](Cc2c[nH]c3ccccc23)NC(=O)[C@H](CCCNC(=N)N)NC(=O)[C@@H](Cc2ccccc2Cl)NC(=O)[C@H](CC(N)=O)NC1=O [Example 113]    100
CC(=O)N[C@@H](CCCNC(=N)N)C(=O)N[C@H]1CCC(=O)NCCC[C@@H](C(N)=O)NC(=O)[C@H](Cc2c[nH]c3ccccc23)NC(=O)[C@H](CCCNC(=N)N)NC(=O)[C@@H](Cc2cccc(Cl)c2)NC(=O)[C@H](CCCNC(N)=O)NC1=O [Example 99]    94
CC(=O)N[C@@H](CCCNC(=N)N)C(=O)N[C@H]1CCC(=O)NCCC[C@@H](C(=O)O)NC(=O)[C@H](Cc2c[nH]c3ccccc23)NC(=O)[C@H](CCCNC(=N)N)NC(=O)[C@@H](Cc2ccc(C#N)cc2)NC(=O)[C@H](CC(N)=O)NC1=O [Example 85]    94
COc1ccc(C[C@H]2NC(=O)[C@H](CCN)NC(=O)[C@@H](NC(=O)[C@H](CCCNC(=N)N)NC(C)=O)CCC(=O)NCCC[C@@H](C(N)=O)NC(=O)[C@H](Cc3c[nH]c4ccccc34)NC(=O)[C@H](CCCNC(=N)N)NC2=O)cc1OC [Example 25]    94
CC(=O)N[C@H](CCCNC(=N)N)C(=O)N[C@H]1CCCNC(=O)CC[C@@H](C(N)=O)NC(=O)[C@H](Cc2c[nH]c3ccccc23)NC(=O)[C@H](CCCNC(=N)N)NC(=O)[C@@H](Cc2cccc(Cl)c2)NC(=O)[C@H](Cc2c[nH]cn2)NC1=O [Example 51]    95
CC(=O)N[C@@H](CCCNC(=N)N)C(=O)N[C@H]1CCC(=O)NCCC[C@@H](C(N)=O)NC(=O)[C@H](Cc2c[nH]c3ccccc23)NC(=O)[C@H](CCCNC(=N)N)NC(=O)[C@@H](Cc2cccc(C#N)c2)NC(=O)[C@H](CCN)NC1=O [Example 6]    100
CC(=O)N[C@@H](CCCNC(=N)N)C(=O)N[C@H]1CCC(=O)NCCC[C@@H](C(N)=O)NC(=O)[C@H](Cc2c[nH]c3ccccc23)NC(=O)[C@H](CCCNC(=N)N)NC(=O)[C@@H](Cc2ccc(C#N)cc2)NC(=O)[C@H](C)NC1=O [Example 41] (Ac-REA[dPhe(4-CN)]RW[Orn]-NH2; lactam 2-7)    84
CC(=O)N[C@@H](CCCNC(=N)N)C(=O)N[C@H]1CCC(=O)NCCC[C@@H](C(N)=O)NC(=O)[C@H](Cc2c[nH]c3ccccc23)NC(=O)[C@H](CCCNC(=N)N)NC(=O)[C@@H](Cc2cc(F)c(F)c(F)c2)NC(=O)[C@H](CC(N)=O)NC1=O [Example 95]    100

* * *

- targetSystem: MC1-R
- methodNotes: Competitive inhibition binding assay using [I125]-NDP-α-MSH, MC1-R
- assayConditions: membranes of B-16 mouse melanoma cells (endogenous MC1-R), in some instances HEK-293 hMC1-R
resultType: Ki (nM)

CC(=O)N[C@@H](CCCNC(=N)N)C(=O)N[C@H]1CCC(=O)NCCC[C@@H](C(N)=O)NC(=O)[C@H](Cc2c[nH]c3ccccc23)NC(=O)[C@H](CCCNC(=N)N)NC(=O)[C@@H](Cc2ccccc2Cl)NC(=O)[C@@H]2C[C@@H](O)CN2C1=O    143
CC(=O)N[C@@H](CCCNC(=N)N)C(=O)N[C@H]1CCC(=O)NCCC[C@@H](C(N)=O)NC(=O)[C@H](Cc2c[nH]c3ccccc23)NC(=O)[C@H](CCCNC(=N)N)NC(=O)[C@@H](Cc2ccc(F)cc2)NC(=O)[C@@H]2C[C@@H](O)CN2C1=O    89

P. CC(=O)N[C@H](CCCNC(=N)N)C(=O)N[C@H]1CC(=O)NCCCC[C@@H](C(N)=O)NC(=O)[C@H](Cc2c[nH]c3ccccc23)NC(=O)[C@H](CCCNC(=N)N)NC(=O)[C@@H](Cc2ccccc2Cl)NC(=O)[C@H](CCC(N)=O)NC1=O
Q. CC(=O)N[C@@H](CCCNC(=N)N)C(=O)N[C@H]1CCC(=O)NCCC[C@@H](C(N)=O)NC(=O)[C@H](Cc2c[nH]c3ccccc23)NC(=O)[C@H](CCCNC(=N)N)NC(=O)[C@@H](Cc2cccc(F)c2)NC(=O)[C@H](CCN)NC1=O
**Query** Sorting ascending by Ki, which comes first: P or Q ? Respond using the label that marks the chosen record.
**Result** Q
(Q: 2 nM, P: 395 nM)
